molecules and their reported remaining proliferation (% of control), lower = more inhibition
# Experimental Protocol: qHTS profiling for inhibitors of Plasmodium falciparum (HB3) proliferation (AID 743324);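 note: 100% = DMSO vehicle wells and 0% = artemisinin-treated control wells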
# Condition Parameters: Plasmodium falciparum HB3 blood-stage proliferation; at 28.7 µM (top of the series) unless noted
Entry rule: numbers only, all in %.

The measured remaining proliferation (% of control), lower = more inhibition associated with O=c1cc(C2=CC=CC3Sc4ccccc4SC23)oc(N2CCOCC2)c1 (stereo unspecified) reads 76.5

The measured remaining proliferation (% of control), lower = more inhibition associated with CCOc1cc2ncc(C#N)c(Nc3ccc(OCc4ccccn4)c(Cl)c3)c2cc1NC(=O)/C=C/CN(C)C reads -0.513

The measured remaining proliferation (% of control), lower = more inhibition associated with CN1CCC(CN2c3ccccc3Sc3ccccc32)C1 (stereo unspecified) reads 21.8

The measured remaining proliferation (% of control), lower = more inhibition associated with CCC1(O)CC2CN(CCc3c([nH]c4ccccc34)[C@@](C(=O)OC)(c3cc4c(cc3OC)N(C=O)[C@H]3[C@](O)(C(=O)OC)[C@H](OC(C)=O)[C@]5(CC)C=CCN6CC[C@]43[C@@H]65)C2)C1 (stereo partly specified) reads 8.78

* * *

# System: HACAT
# Experimental Protocol: qHTS assay to identify novel small-molecules to repurpose for Merkel cell carcinoma treatment (AID 1296009); note: nearly all actives have a fitted effect of over 60% in size
# Condition Parameters: MCC and control cell lines, CellTiter-Glo viability, 72 h; at 44.8 µM (top of the series) unless noted
# Source text: MCC is a rare and aggressive neuroendocrine skin cancer with limited treatment options. Approximately 80% of MCCs have the Merkel cell polyomavirus (MCPyV) DNA integrated into the host genome (virus-positive: VP-MCC) and viral oncogenes drive oncogenesis. The remaining MCCs are virus-negative (VN-MCC) and are caused by UV mutagenesis. […] Using cell viability as a readout (CellTiter-Glo assay) we found both overlapping and distinct drugs that can be repurposed for the treatment of VP-MCC and VN-MCC. […]
Results filed as inconclusive are left out. Calls of active or inactive are those of the source. The call rests on the fitted dose curve; in most records, active means well fitted inhibition curve with a large enough effect; inconclusive means small, poorly fitted or top-dose-only effect; inactive means flat fitted curve, though single readings scatter.
Quantity Kind: outcome

Worked cases, answers included:
Compound | outcome
CN[C@@H]1[C@@H](O)[C@@H](O[C@@H]2[C@@H](O)[C@H](O[C@H]3O[C@H](CN)[C@@H](O)[C@H](O)[C@H]3O)[C@@H](N)C[C@H]2NC(=O)[C@@H](O)CN)OC[C@]1(C)O | inactive
CC1(C)CCC[C@@]2(C)[C@H]1[C@H](O)C=C1COC(=O)[C@@]12O | inactive
O=C(NCC(=O)N1CC[C@H](NC2CCC(O)(c3ccc(-c4ncccn4)cn3)CC2)C1)c1cccc(C(F)(F)F)c1 (stereo partly specified) | inactive
O=C(Nc1cccnn1)N1CCC(=Cc2cccc(Oc3ccc(C(F)(F)F)cn3)c2)CC1 | inactive
C(#Cc1cccc(CN2CCOCC2)c1)CCN1CCCCC1 | inactive

Form field, outcome with HACAT, item CC(CCC1(O)OC2CC3C4CCC5CC(O[C@@H]6O[C@H](CO)[C@@H](O)[C@H](O)[C@H]6O[C@@H]6OC[C@@H](O)[C@H](O)[C@H]6O)C(O)CC5(C)C4CCC3(C)C2C1C)CO[C@@H]1O[C@H](CO)[C@@H](O)[C@H](O)[C@H]1O (stereo partly specified) : inactive [at 9.27 µM]

Form field, outcome with HACAT, item COc1cc(C(O)C(CO)Oc2ccc(CCCO[C@@H]3O[C@@H](C)[C@H](O)[C@@H](O)[C@H]3O)cc2OC)ccc1O (stereo partly specified) : inactive [at 17.4 µM]

Form field, outcome with HACAT, item CC12CC34C=CC(=O)C(C)(CCC(=O)O)C3C(CC1C4)O2 (stereo unspecified) : inactive

Form field, outcome with HACAT, item CC1OC(OC2C(O)C(C(=O)O)OC(OC3CCC4(C)C(CCC5(C)C4C=CC4=C6CC(C)(C)CC(O)C6(C)CCC45C)C3(C)C)C2OC2OCC(O)C(O)C2O)C(O)C(O)C1O (stereo unspecified) : inactive [at 9.27 µM]

Form field, outcome with HACAT, item COc1ccc2c(c1O)OC[C@H]1c3ccc(O)cc3O[C@@H]21 : inactive

Form field, outcome with HACAT, item C=C1C[C@]23C[C@H]1CC[C@H]2[C@@]12C=C[C@H](O)[C@@](C)(C(=O)O1)[C@H]2[C@@H]3C(=O)O : inactive

* * *

# Experimental System: Furin (Homo sapiens)
# Experimental Protocol: Furin counterscreen qHTS for Zika virus inhibitors (AID 1347149); note: nearly all actives have a fitted effect of over 70% in size; note: potency is the fitted concentration of half-maximal effect
# Condition Parameters: furin enzymatic counterscreen, fluorogenic substrate; series mostly up to 114 µM
# Text: Avindra Nath, Ph.D., National Institute of Neurological Disorders and Stroke (NINDS), Bethesda, MD Radhakrishnan Padmanabhan, Ph.D., Georgetown University (GU), Washington D.C. Zika Virus causes congenital defects, including microcephaly and is associated with Guillain-Barre syndrome, eningoencephalitis and myelitis in infected adult. […]
Inconclusive results are not listed. Activity calls are given as the source filed them. Calls come from the whole dose curve; as a rule, active = well fitted inhibition curve with a large enough effect; inconclusive = small, poorly fitted or top-dose-only effect; inactive = no such curve, though single readings can be large or run the other way.
Quantity Kind: Potency

Worked cases, answers included:
Compound | Experimental System | Potency
CC(C)C(=O)c1cn(CC(=O)COc2ccc(Oc3ccccc3)cc2)c2ccc(C(=O)O)cc12 | Furin (Homo sapiens) | inactive
CC(C)N=c1cc2n(-c3ccc(Cl)cc3)c3ccccc3nc-2cc1Nc1ccc(Cl)cc1 | Furin (Homo sapiens) | inactive
Nc1c(N=Nc2ccc(-c3ccc(N=Nc4cc(S(=O)(=O)O)c5ccccc5c4N)cc3)cc2)cc(S(=O)(=O)O)c2ccccc12 | Furin (Homo sapiens) | 37.3 µM (active)
O=C(O)c1cc(O)c2cccc(O)c2c1O[C@@H]1O[C@H](CO)[C@@H](O)[C@H](O)[C@H]1O | Furin (Homo sapiens) | 34.3 µM (active)

The measured Potency associated with N#CC1C(=O)Nc2scc(-c3ccc(-c4ccccc4O)cc3)c2C1=O (stereo not drawn) reads inactive

The measured Potency associated with O=S(=O)(O)c1ccc2c(N=Nc3ccc(S(=O)(=O)O)c4ccccc34)c(O)c(S(=O)(=O)O)cc2c1 reads inactive

The measured Potency associated with CC(C)C1=CCC(C)(O)C(OC2OC(CO)C(O)C(O)C2O)C1 (stereo not drawn) reads inactive

The measured Potency associated with O=C(/C=C/c1c(C(=O)O)[nH]c2cc(Cl)cc(Cl)c12)Nc1ccccc1 reads inactive

* * *

# Experimental Protocol: Primary fluorescence-based thiol-reactive (MSTI) qHTS assay for identification of artifact compounds. (AID 1845221);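 note: thiol-reactive compounds lower the probe fluorescence signal; nearly all actives have a fitted effect of over 65% in size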
# Condition Parameters: MSTI thiol-reactivity probe, 1 h; series mostly up to 53.8 µM
Records with an inconclusive call do not appear. Active and inactive are the calls of the source. Calls follow the shape of the dose curve; as a rule, active = well fitted inhibition curve with a large enough effect; inconclusive = small, poorly fitted or top-dose-only effect; inactive = no such curve, though single readings can be large or run the other way.
compounds and their reported activity change, negative = thiol reactive

Compound | Result
C=CC(C)(O)CC/C=C(\C)C(=O)OCC1OC(OC2CCC3(C)C(CCC4(C)C3CC=C3C5CC(C)(C)C(O)CC5(C(=O)O)CCC34C)C2(C)C)C(O)C(OC2OC(CO)C(O)C(OC3OC(CO)C(O)C(OC4OC(COC5OC(CO)C(O)C(O)C5O)C(O)C(O)C4O)C3O)C2O)C1O (centres undefined) | 67.6% [at 11.5 µM] (inactive)
COC(=O)C1=COC(O[C@@H]2O[C@H](CO)[C@@H](O)[C@H](O)[C@H]2O)/C(=C\COC(=O)c2ccc(OC3OC(CO)C(O)C(O)C3O)c(OC)c2)C1CC(=O)OCCc1ccc(O)cc1 (some centres undefined) | 1.89% [at 11.5 µM] (inactive)
CC1(CO)CC[C@]2(C(=O)O[C@@H]3O[C@H](CO)[C@@H](O)[C@H](O)[C@H]3O)CC[C@]3(C)C(=CCC4[C@@]5(C)C[C@H](O)[C@H](O[C@@H]6OC[C@@H](O)[C@H](O)[C@H]6O)[C@@](C)(CO)C5CC[C@]43C)C2C1 (some centres undefined) | 76.2% [at 11.5 µM] (inactive)

We now examine a further compound.
The measured activity change, negative = thiol reactive associated with COC(=O)[C@@]1(C)CC[C@]2(C(=O)O[C@@H]3O[C@H](CO)[C@@H](O)[C@H](O)[C@H]3O)CC[C@]3(C)C(=CCC4[C@@]5(C)CC[C@H](O[C@@H]6O[C@H](C(=O)O)[C@@H](O)[C@H](O)[C@H]6O)C(C)(C)C5CC[C@]43C)[C@@H]2C1 (some centres undefined) reads 77.9% [at 11.5 µM] (inactive)

* * *

# Tested on: Zika virus NS2B-NS3 protease (unlinked complex)
# Experimental Protocol: Primary screen GU Rhodamine qHTS for Zika virus inhibitors: Unlinked NS2B-NS3 protease assay (AID 1347159); note: % is set by controls: 0 for no effect and ±100 for the full control effect; nearly all actives have a fitted effect of over 60% in size
# Condition Parameters: Recombinant ZIKV NS2B-NS3 protease, Rhodamine110 substrate fluorescence; series mostly up to 107 µM
Records with an inconclusive call do not appear. Active and inactive are the calls of the source. Calls come from the whole dose curve; as a rule, active = well fitted inhibition curve with a large enough effect; inconclusive = small, poorly fitted or top-dose-only effect; inactive = no such curve, though single readings can be large or run the other way.
// one of YES = active, NO = inactive, no free text

These recorded examples may help you get a feel for the data.
Compound | Label Class
C[C@H]1C[C@H]2[C@@H]3CCC4=CC(=O)C=C[C@]4(C)[C@@]3(F)[C@@H](O)C[C@]2(C)[C@@]1(O)C(=O)COP(=O)(O)O | NO
CC1OC(OC2C(C)OC(OC3C(OC(=O)/C=C/c4ccc(O)cc4)C(CO)OC(OC4(COC(=O)/C=C/c5ccc(O)cc5)OC(CO)C(O)C4O)C3OC3OCC(O)(CO)C3O)C(O)C2O)C(O)C(O)C1O (stereo unspecified) | NO
OC[C@H]1O[C@@H](OCCc2ccc(O)cc2)[C@H](O)[C@@H](O)[C@@H]1O | NO

INPUT: I would be grateful if you could indicate the recorded call for COC1CC(=O)CCC(C)OC(=O)CC1O (stereo unspecified) .
OUTPUT: NO

INPUT: I would be grateful if you could indicate the recorded call for C=C(C)[C@@H]1CC[C@](C)(O)[C@@H](OC(=O)c2ccccc2)C1 .
OUTPUT: NO

INPUT: I would be grateful if you could indicate the recorded call for CC(C)(O)C1CC=C(C(=O)OCC2OC(Oc3c(O)cc(C(=O)O)cc3O)C(O)C(O)C2O)CC1 (stereo unspecified) .
OUTPUT: NO

Recorded values, source PubChem BioAssay (NCATS).
